Please provide measured self-cleavage for the entries that follow.
B1: Hairpin Ribozyme (parent)
chain: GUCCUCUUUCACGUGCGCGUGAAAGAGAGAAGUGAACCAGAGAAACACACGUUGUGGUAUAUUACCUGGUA

variants of: B1; test: self-cleavage, relative activity (ratio to wild type); higher = more cleavage; co-transcriptional

Reported self-cleavage of G42C U70G : 0.145

Query C16G A23U yields self-cleavage of 0.718

Measured self-cleavage, A44G U52C : 0.223
